TEST: qHTS assay to identify small molecule that activate the aryl hydrocarbon receptor (AhR) signaling pathway - cell viability counter screen (AID 743086); note: nearly all actives have a fitted effect of over 45% in size
EXPERIMENTAL CONDITIONS: HepG2-AhR-luc viability, CellTiter-Fluor, 24 h; series mostly up to 70.3 µM
Records with an inconclusive call do not appear. Calls of active or inactive are those of the source. Calls come from the whole dose curve; as a rule, active = well fitted cell-killing curve with a large enough effect in the repeat runs; inconclusive = weak or mixed curves, or effect the other way; inactive = flat fitted curve, though single readings scatter. Positions of bridges follow the written chain, without caps; N, C: chain ends. Non-standard residues stand in square brackets, D forms with d. Residues, ends and D or L forms follow the SMILES beside them. *: point of attachment. X2 = CC[C@H](C)CCCCC(=O)*; Dab = NCC[C@H](N)C(=O)O
Possible outcomes: active, inactive

COMPOUND	ASSIGNED LABEL
CCCC(=O)Nc1ncnc2c1ncn2[C@@H]1O[C@@H]2COP(=O)(O)O[C@H]2[C@H]1OC(=O)CCC	inactive
C[C@@H]1C/C=C/C=C/C=C/C=C/[C@H](O[C@@H]2O[C@H](C)[C@@H](O)[C@H](N)[C@@H]2O)C[C@@H]2O[C@](O)(C[C@@H](O)C[C@H]3O[C@@H]3/C=C/C(=O)O1)C[C@H](O)[C@H]2C(=O)O	inactive
NCc1ccccc1CC(=O)N[C@@H]1C(=O)N2C(C(=O)O)=C(CSc3nnnn3CC(=O)O)CS[C@H]12	inactive
C[C@]12CCC(=O)C=C1CC[C@@H]1[C@@H]2[C@@H](O)C[C@@]2(C)[C@H]1CC[C@]2(O)C(=O)COP(=O)(O)O	inactive
CCOc1cc(-c2nccc3cc(OC)c(OC)cc23)cc(OCC)c1OCC	active
O=C(O)[C@@H](O)[C@H](O)[C@H](O)[C@@H](O)C(=O)O (tested in a mixture with another compound)	inactive
Cc1c(N)nc(C(CC(N)=O)NCC(N)C(N)=O)nc1C(=O)NC(C(=O)NC(C)C(O)C(C)C(=O)NC(C(=O)NCCc1nc(-c2nc(C(=O)NCCCN[C@@H](C)c3ccccc3)cs2)cs1)C(C)O)C(O[C@@H]1O[C@@H](CO)[C@@H](O)[C@H](O)[C@@H]1O[C@H]1O[C@H](CO)[C@@H](O)[C@H](OC(N)=O)[C@@H]1O)c1cnc[nH]1 (stereo partly drawn)	inactive
Nc1ncnc2c1ncn2CCOCP(=O)(O)O	inactive
CC#CCC(C)[C@H](O)/C=C/[C@@H]1[C@H]2c3cccc(CCCC(=O)O)c3O[C@H]2C[C@H]1O (stereo partly drawn)	inactive
CCOC(=O)COc1ccc2c(C)c(CCN(CC)CC)c(=O)oc2c1	inactive
O=C(O)CC/C=C\CC[C@@H]1[C@@H](N2CCCCC2)[C@@H](O)C[C@@H]1OCc1ccc(-c2ccccc2)cc1	inactive
Nc1ccn(C[C@@H](CO)OCP(=O)(O)O)c(=O)n1	inactive
CC[C@H](C)CCCCC(=O)N[C@@H](CCN)C(=O)N[C@H](C(=O)N[C@@H](CCN)C(=O)N[C@H]1CCNC(=O)[C@H]([C@@H](C)O)NC(=O)[C@H](CCN)NC(=O)[C@H](CCN)NC(=O)[C@H](CC(C)C)NC(=O)[C@@H](CC(C)C)NC(=O)[C@H](CCN)NC1=O)[C@@H](C)O (X2-[Dab]T[Dab][Dab][Dab][dL]L[Dab][Dab]T; lactam 4-C)	inactive

###

TEST: qHTS assay to identify small molecule that activate the aryl hydrocarbon receptor (AhR) signaling pathway - cell viability counter screen (AID 743086); note: nearly all actives have a fitted effect of over 45% in size
EXPERIMENTAL CONDITIONS: HepG2-AhR-luc viability, CellTiter-Fluor, 24 h; series mostly up to 70.3 µM
Results filed as inconclusive are left out. Activity calls are given as the source filed them. The call rests on the fitted dose curve; in most records, active means well fitted cell-killing curve with a large enough effect in the repeat runs; inconclusive means weak or mixed curves, or effect the other way; inactive means flat fitted curve, though single readings scatter. Non-standard residues stand in square brackets, D forms with d. Residues, ends and D or L forms follow the SMILES beside them. pGlu = O=C1CC[C@@H](C(=O)O)N1; Thz = O=C(O)[C@@H]1CSCN1
Classes used: True = active, False = inactive

COMPOUND	ASSIGNED LABEL
C=CCSSSCC=C	False
O=C1CC[C@@H](C(=O)N2CSC[C@H]2C(=O)O)N1 ([pGlu]-[Thz]-OH)	False
COc1c(O[C@@H]2O[C@H](CO)[C@@H](O)[C@H](O)[C@H]2O)cc2c(c1OC)-c1ccc(SC)c(=O)cc1[C@@H](NC(C)=O)CC2	False
CN1[C@@H]2CCC[C@H]1CC(NC(=O)c1nn(C)c3ccccc13)C2 (stereo not given in full)	False
O=C(NNCNNC(=O)c1ccncc1)c1ccncc1	False
C[C@]12C=CC(=O)N[C@@H]1CC[C@@H]1[C@@H]2CC[C@]2(C)[C@@H](C(=O)Nc3cc(C(F)(F)F)ccc3C(F)(F)F)CC[C@@H]12	False
CCCCCCCCCCCCCCCCCC(=O)OCC(C)O (stereo not given)	True
CCC[C@@H]1C[C@@H](C(=O)N[C@@H]([C@H]2O[C@H](SC)[C@H](O)[C@@H](O)[C@H]2O)[C@H](C)Cl)N(C)C1	False
NCCC[C@H](N)C(=O)O	False
O=C(O)[C@H]1/C(=C/CO)O[C@@H]2CC(=O)N21	False
CO[C@H]1C[C@H](O[C@@H]2/C(C)=C/C[C@@H]3C[C@@H](C[C@]4(CC[C@H](C)[C@@H](C5CCCCC5)O4)O3)OC(=O)[C@@H]3C=C(C)/C(=N/O)[C@H]4OC/C(=C\C=C\[C@@H]2C)[C@]43O)O[C@@H](C)[C@@H]1O	False
CC(C)[C@@H](N)C(=O)O	False
C[C@@H]1C[C@H]2[C@@H]3CCC4=CC(=O)C=C[C@]4(C)[C@@]3(F)[C@@H](O)C[C@]2(C)[C@@]1(O)C(=O)COC(=O)c1cccc(S(=O)(=O)O)c1	False
CCC(=O)O[C@]1(C(=O)CCl)[C@@H](C)C[C@H]2[C@@H]3C[C@H](F)C4=CC(=O)C=C[C@]4(C)[C@@]3(F)[C@@H](O)C[C@@]21C	False
CCN(CC)CCOC(=O)c1ccc(N)cc1Cl	False
CCCCCCCCCCCCCCCCCCCCCCO	False
CC(=O)Oc1cc(C)c(OC(C)=O)c2ccccc12	False
Cc1cc(C(=O)NNCc2ccccc2)no1	False
C=C1CC[C@H](O)CC1=C/C=C1\CCC[C@]2(C)[C@@H]([C@H](C)CCCC(C)(C)O)CC[C@@H]12	False
CCN(CC)c1ccc(N=Nc2ccc(S(=O)(=O)N(C)C)cc2)c(S(=O)(=O)NCC[n+]2ccccc2)c1	False
O=C(O)c1ccc(NC(=O)[C@H](Cc2ccc(O)cc2)NC(=O)c2ccccc2)cc1	False
NC[C@@H]1O[C@H](O[C@H]2[C@@H](O)[C@H](O[C@@H]3[C@@H](O)[C@H](N)C[C@H](N)[C@H]3O[C@H]3O[C@H](CO)[C@@H](O)[C@H](O)[C@H]3N)O[C@@H]2CO)[C@H](N)[C@@H](O)[C@@H]1O	False
CC(O)CN(C)C (stereo not given)	False
COc1cc(C)c(/C=C/C(C)=C/C=C/C(C)=C/C(=O)O)c(C)c1C	False
CC[C@H](C)[C@H]1O[C@]2(CC[C@@H]1C)C[C@@H]1C[C@@H](C/C=C(\C)[C@@H](O[C@H]3C[C@H](OC)[C@@H](O[C@H]4C[C@H](OC)[C@@H](O)[C@H](C)O4)[C@H](C)O3)[C@@H](C)/C=C/C=C3\CO[C@@H]4[C@H](O)C(C)=C[C@@H](C(=O)O1)[C@]34O)O2	False
CC(=O)O[C@H]1CC[C@@]2(C)C(=CC[C@H]3[C@@H]4CC[C@H](C(C)=O)[C@@]4(C)CC[C@@H]32)C1	False
O=C1c2ccccc2C(=O)C1c1ccc(Cl)cc1	False
OC[C@H]1O[C@@H](n2cnc3c2NC=NC[C@H]3O)C[C@@H]1O	False
CC(C)NCC(O)COc1ccccc1-n1cccc1 (stereo not given)	False
CCCc1nc(C(C)(C)O)c(C(=O)OCc2oc(=O)oc2C)n1Cc1ccc(-c2ccccc2-c2nn[nH]n2)cc1	False
O=C(NCCNCC(O)COc1ccc(O)cc1)N1CCOCC1 (stereo not given)	False
O=C(O)c1c(Cl)c(Cl)c(Cl)c(Cl)c1-c1c2cc(I)c(=O)c(I)c-2oc2c(I)c(O)c(I)cc12	True
O=C[C@H](O)[C@@H](O)[C@H](O[C@H]1O[C@H](CO)[C@@H](O[C@H]2O[C@H](CO)[C@@H](O)[C@H](O)[C@H]2O)[C@H](O)[C@H]1O)[C@H](O)CO	False
CCC(=O)OCC(=O)[C@@]1(OC(=O)CC)[C@H](C)C[C@H]2[C@@H]3CCC4=CC(=O)C=C[C@]4(C)[C@@]3(F)[C@@H](O)C[C@@]21C	False
Cc1ccccc1OCC(O)CNCCOc1ccc(C(N)=O)cc1 (stereo not given)	False

Origin of values: PubChem BioAssay (Tox21)
